- target-of-assay: CYP2C9 (Homo sapiens)
- method-notes: Competitive CYP inhibition (Method 2), human hepatic microsome
- Format: in vitro ADME
- reported-conditions: tested at 1 or 10 μM, tolbutamide 100 μM, n = 2; read-out: CYP2C9 IC50 score (competitive inhibition)
pIC50: −log10 of the molar value.
result-type: pIC50

Asked: Given the compound Fc1ccc([C@@H]2CCNC[C@H]2COc2ccc3c(c2)OCO3)cc1 [Paroxetine, reference compound] , what is its reported pIC50?
Given back: < 5.00

----------
- target-of-assay: CYP2C9 (Homo sapiens, UniProt P11712)
- Sequence (P11712 whole entry): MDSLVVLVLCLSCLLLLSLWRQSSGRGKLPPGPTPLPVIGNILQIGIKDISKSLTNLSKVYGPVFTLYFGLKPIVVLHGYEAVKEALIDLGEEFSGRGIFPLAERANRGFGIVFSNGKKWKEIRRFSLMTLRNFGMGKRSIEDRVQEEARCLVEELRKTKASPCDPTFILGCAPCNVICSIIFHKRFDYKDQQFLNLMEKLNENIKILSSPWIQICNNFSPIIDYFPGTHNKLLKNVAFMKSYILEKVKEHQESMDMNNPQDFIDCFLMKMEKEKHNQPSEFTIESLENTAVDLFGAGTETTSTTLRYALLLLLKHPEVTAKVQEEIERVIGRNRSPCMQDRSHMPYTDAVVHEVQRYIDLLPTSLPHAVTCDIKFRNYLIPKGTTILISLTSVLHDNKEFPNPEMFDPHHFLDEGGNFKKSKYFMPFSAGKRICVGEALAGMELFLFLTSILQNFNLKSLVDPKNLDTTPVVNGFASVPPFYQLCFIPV
- method-notes: Competitive CYP inhibition (Method 2), human hepatic microsome
- Type: in vitro ADME
pIC50: −log10 of the molar value.
result-type: pIC50

Asked: Any idea what pIC50 was measured for Fc1ccc([C@@H]2CCNC[C@H]2COc2ccc3c(c2)COC3)cc1 [Example 1] ?
Given back: < 5.00
